// reported Emax for each item listed
Target: human Cystic Fibrosis Transmembrane Conductance Regulator (CFTR) harboring the ΔF508 mutation (Homo sapiens, UniProt P13569, DEL508-508)
Construct: expressed in transfected cells; host or cells: H441 carcinoma line (G418-selected)
Sequence (P13569 with tags, fused parts or gaps DEL508-508): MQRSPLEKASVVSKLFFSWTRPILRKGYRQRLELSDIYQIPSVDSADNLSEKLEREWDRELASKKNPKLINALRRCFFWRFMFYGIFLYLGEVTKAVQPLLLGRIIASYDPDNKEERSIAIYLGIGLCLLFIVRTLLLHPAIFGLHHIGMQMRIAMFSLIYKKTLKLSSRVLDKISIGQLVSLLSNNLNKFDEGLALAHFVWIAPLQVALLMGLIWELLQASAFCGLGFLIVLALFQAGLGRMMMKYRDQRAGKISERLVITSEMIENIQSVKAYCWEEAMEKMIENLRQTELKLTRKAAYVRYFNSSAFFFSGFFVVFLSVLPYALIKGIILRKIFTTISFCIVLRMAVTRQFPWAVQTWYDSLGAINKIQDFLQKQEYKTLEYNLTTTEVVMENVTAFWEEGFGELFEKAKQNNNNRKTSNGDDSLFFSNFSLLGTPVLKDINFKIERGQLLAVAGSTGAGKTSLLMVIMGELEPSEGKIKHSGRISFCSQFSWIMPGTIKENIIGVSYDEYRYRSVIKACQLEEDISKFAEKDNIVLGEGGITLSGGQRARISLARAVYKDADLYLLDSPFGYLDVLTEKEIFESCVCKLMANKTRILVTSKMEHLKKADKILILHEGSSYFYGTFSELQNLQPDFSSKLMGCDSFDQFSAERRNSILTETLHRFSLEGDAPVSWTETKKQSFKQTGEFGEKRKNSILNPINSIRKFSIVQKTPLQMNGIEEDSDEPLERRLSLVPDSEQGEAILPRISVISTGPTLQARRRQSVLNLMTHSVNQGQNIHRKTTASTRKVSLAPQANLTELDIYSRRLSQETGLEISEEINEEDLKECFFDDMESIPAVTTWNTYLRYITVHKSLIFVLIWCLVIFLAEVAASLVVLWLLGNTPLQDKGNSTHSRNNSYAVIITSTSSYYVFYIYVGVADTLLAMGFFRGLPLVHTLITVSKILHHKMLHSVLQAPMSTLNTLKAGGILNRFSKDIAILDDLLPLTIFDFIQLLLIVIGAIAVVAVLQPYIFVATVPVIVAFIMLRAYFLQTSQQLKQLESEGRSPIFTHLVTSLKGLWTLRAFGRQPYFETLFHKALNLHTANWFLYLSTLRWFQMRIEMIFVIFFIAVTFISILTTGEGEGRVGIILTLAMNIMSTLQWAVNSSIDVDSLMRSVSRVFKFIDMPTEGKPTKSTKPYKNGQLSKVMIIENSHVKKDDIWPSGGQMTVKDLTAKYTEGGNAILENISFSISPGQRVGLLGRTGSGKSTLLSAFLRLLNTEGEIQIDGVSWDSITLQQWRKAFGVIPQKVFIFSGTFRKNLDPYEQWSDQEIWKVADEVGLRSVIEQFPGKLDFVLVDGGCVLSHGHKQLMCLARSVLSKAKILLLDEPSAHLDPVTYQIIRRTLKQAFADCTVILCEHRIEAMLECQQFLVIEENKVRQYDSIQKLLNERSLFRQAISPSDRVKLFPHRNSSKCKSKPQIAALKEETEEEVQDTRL
Assay: H441 cell ΔF508-CFTR-HRP cell surface assay (Emax and EC50)
Format: cell-based
Settings: NCI-H441, NA = Not active
Give the value, in units of %, as a plain number.

Recorded results for 3 compounds are shown here.
>  <COMPOUND>
CC(C)(C)C[C@H](NC(=O)c1ccc2ccccc2c1OC[C@H]1CC[C@H](C(F)(F)F)CC1)C(=O)O

>  <Emax, %>
103

$$$$
>  <COMPOUND>
CC(C)(C)[C@H](NC(=O)c1ccc2ccc(C(F)F)cc2c1OCc1ccc(C(F)(F)F)cc1)C(=O)O

>  <Emax, %>
365

$$$$
>  <COMPOUND>
O=C(N[C@H](C(=O)O)C1CCCC1)c1ccc2ccccc2c1OCC1CCC(F)(F)CC1

>  <Emax, %>
60.7

$$$$

Given item O=C(NC(C(=O)O)C(C(F)(F)F)C(F)(F)F)c1ccc2ccccc2c1OCC1CCCCC1 (stereo not drawn) , the value recorded as its Emax is 63.9

Given item "O=C(N[C@@H](Cc1ccccc1)C(=O)O)c1ccc2ccccc2c1OCc1ccc(Br)cc1" , the value recorded as its Emax is 24.5

Given item C[C@@H](OC(C)(C)C)C(NC(=O)c1ccc2ccccc2c1OCc1ccc(C(F)(F)F)cc1)C(=O)O (stereo partly drawn) , the value recorded as its Emax is 151

Given item "CC(C)(C)C[C@H](NC(=O)c1ccc2ccccc2c1OC[C@H]1CC[C@@H](C(F)(F)F)CC1)C(=O)O" , the value recorded as its Emax is 70.7

Given item "CCC(C)(C)[C@H](NC(=O)c1ccc2ccc(Cl)cc2c1OCc1ccc(OC(F)(F)F)cc1)C(=O)O" , the value recorded as its Emax is 186

Given item "CC1([C@H](NC(=O)c2ccc3ccc(C(F)(F)F)cc3c2OCc2ccc(C(F)(F)F)cc2)C(=O)O)CC1" , the value recorded as its Emax is 153

Given item "O=C(N[C@@H](Cc1ccc(C(F)(F)F)cc1)C(=O)O)c1ccc2ccccc2c1OCC1CCCCC1" , the value recorded as its Emax is 65.4

Given item "CC1([C@H](NC(=O)c2ccc3c(F)cccc3c2OCc2ccc(C(F)(F)F)cc2)C(=O)O)CCCC1" , the value recorded as its Emax is 174

Given item "O=C(N[C@@H](Cc1ccccc1)C(=O)O)c1ccc2ccccc2c1OCc1cccc(C(F)(F)F)c1" , the value recorded as its Emax is 29.3

Given item "CC(C)(O)[C@H](NC(=O)c1ccc2ccccc2c1OCc1ccc(C(F)(F)F)cc1)C(=O)O" , the value recorded as its Emax is 22.4

Given item "COC(C)(C)[C@H](NC(=O)c1ccc2ccccc2c1OCc1ccc(C(F)(F)F)cc1)C(=O)O" , the value recorded as its Emax is 118

Given item "N#Cc1ccc(C[C@H](NC(=O)c2ccc3ccccc3c2OCc2ccc(C(F)(F)F)cc2)C(=O)O)cc1" , the value recorded as its Emax is 63.4

----------
Target: human Cystic Fibrosis Transmembrane Conductance Regulator (CFTR) harboring the ΔF508 mutation (Homo sapiens, UniProt P13569, DEL508-508)
Test: H441 cell ΔF508-CFTR-HRP cell surface assay (Emax and EC50)
MEASUREMENT_NAME: EC50 (nM)
Give the value, in units of nM, as a plain number.

Given item "COC(=O)[C@H](Cc1ccccc1)NC(=O)c1ccc2ccccc2c1OCc1ccc(Cl)c(Cl)c1" , the value recorded as its EC50 is 6700

Given item "CC(C)(SC1CCCC1)[C@H](NC(=O)c1ccc2ccccc2c1OCc1ccc(SC(F)(F)F)cc1)C(=O)O" , the value recorded as its EC50 is 400

Given item "O=C(N[C@H](C(=O)O)C(c1ccccc1)c1ccccc1)c1ccc2cc(F)ccc2c1OCc1ccc(C(F)(F)F)cc1" , the value recorded as its EC50 is 300

Given item "CC(C)(C)[C@H](NC(=O)c1ccc2ccccc2c1OCc1ccc(C(F)(F)F)c(F)c1)C(=O)O" , the value recorded as its EC50 is 500

Given item "CC(C)(C)[C@H](NC(=O)c1ccc2cc(F)ccc2c1OCc1ccc(OC(F)(F)F)cc1)C(=O)O" , the value recorded as its EC50 is 21900

Given item "O=C(N[C@H](C(=O)O)C12CC(C(F)(F)F)(C1)C2)c1ccc2ccccc2c1OCc1ccc(S(F)(F)(F)(F)F)cc1" , the value recorded as its EC50 is 1100

Given item "O=C(N[C@@H](Cc1ccc(C(F)(F)F)cc1)C(=O)O)c1ccc2ccccc2c1OCc1nc2ccccc2s1" , the value recorded as its EC50 is 13100

----------
Target: human Cystic Fibrosis Transmembrane Conductance Regulator (CFTR) harboring the ΔF508 mutation (Homo sapiens, UniProt P13569, DEL508-508)
Construct: expressed in transfected cells; host or cells: H441 carcinoma line (G418-selected)
Assay: H441 cell ΔF508-CFTR-HRP cell surface assay (Emax and EC50)
Format: cell-based
Details: NCI-H441, NA = Not active
// reported Emax for each item listed
Give the value, in units of %, as a plain number.

>  <COMPOUND>
CCCC(C)(C)[C@H](NC(=O)c1ccc2ccc(C(F)(F)F)cc2c1OCc1ccc(C(F)(F)F)cc1)C(=O)O [Example 304]

>  <UNITS_SYMBOL>
%

>  <Emax>
249

$$$$

Given item Cc1cc(F)c2ccc(C(=O)N[C@H](C(=O)O)C(C)(C)C)c(OCc3ccc(C(F)(F)F)cc3)c2c1 [Example 263] , the value recorded as its Emax is 250

Given item CC(C)Oc1ccc2c(OCc3ccc(C(F)(F)F)cc3)c(C(=O)N[C@H](C(=O)O)C(C)(C)C)ccc2c1 [Example 260] , the value recorded as its Emax is 70.2

Given item NC12CCC(C(NC(=O)c3ccc4cc(F)ccc4c3OCc3ccc(C(F)(F)F)cc3)C(=O)O)(CC1)CC2 (stereo not drawn) [Example 185] , the value recorded as its Emax is 14

Given item CC1([C@H](NC(=O)c2ccc3cc(F)ccc3c2OCc2ccc(OC(F)(F)F)cc2)C(=O)O)CC1 [Example 30] , the value recorded as its Emax is 57.5

Given item CC1(C(NC(=O)c2ccc3ccccc3c2OCc2ccc(OC(F)(F)F)cc2)C(=O)O)CCCCC1 (stereo not drawn) [Example 1] , the value recorded as its Emax is 164

Given item CC1(C(NC(=O)c2ccc3cc(F)ccc3c2OCc2ccc(SC(F)(F)F)cc2)C(=O)O)CCCCC1 (stereo not drawn) [Example 69] , the value recorded as its Emax is 57.7

Given item NC12CCC(C(NC(=O)c3ccc4cc(F)ccc4c3OCc3ccc(OC(F)(F)F)cc3)C(=O)O)(CC1)CC2 (stereo not drawn) [Example 184] , the value recorded as its Emax is 11.7

----------
// reported EC50 for each item listed
Target: human Cystic Fibrosis Transmembrane Conductance Regulator (CFTR) harboring the ΔF508 mutation (Homo sapiens, UniProt P13569, DEL508-508)
Test: H441 cell ΔF508-CFTR-HRP cell surface assay (Emax and EC50)
A complete answer gives the number and then names the unit.

>  <MOLECULE>
O=C(N[C@H](C(=O)O)C1CCCC1)c1ccc2ccccc2c1OCC1CCC(F)(F)CC1

>  <VALUE_MEASURED>
4100 nM

$$$$

Given item CC(C)(C)[C@H](NC(=O)c1ccc2ccccc2c1OCC1CC2CCC1C2)C(=O)O (stereo partly drawn) , the value recorded as its EC50 is 3700 nM

Given item "CC1([C@H](NC(=O)c2ccc3c(F)cccc3c2OCc2ccc(C(F)(F)F)cc2)C(=O)O)CCCC1" , the value recorded as its EC50 is 700 nM

Given item "CC(C)(C)[C@H](NC(=O)c1ccc2ccc(Br)cc2c1OCc1ccc(C(F)(F)F)cc1)C(=O)O" , the value recorded as its EC50 is 100 nM

Given item "CC1([C@H](NC(=O)c2ccc3ccc(C(F)(F)F)cc3c2OCc2ccc(C(F)(F)F)cc2)C(=O)O)CCCC1" , the value recorded as its EC50 is 100 nM

Given item "Cc1ccc2ccc(C(=O)N[C@@H](C(=O)O)C(C)(C)C)c(OCc3ccc(C(F)(F)F)cc3)c2c1" , the value recorded as its EC50 is 500 nM

Given item "CC(C)(C)[C@H](NC(=O)c1ccc2ccccc2c1OCc1ccc(Cl)c(Cl)c1)C(=O)O" , the value recorded as its EC50 is 900 nM

Given item "CC(C)(C)C[C@H](NC(=O)c1ccc2ccccc2c1OCc1nc2ccccc2s1)C(=O)O" , the value recorded as its EC50 is 3400 nM

Given item "CC(C)(C)[C@@H](NC(=O)c1ccc2ccc(C(F)F)cc2c1OCc1ccc(C(F)(F)F)cc1)C(=O)O" , the value recorded as its EC50 is 600 nM

Given item "CC(C)(C)C[C@H](NC(=O)c1ccc2cc(F)ccc2c1OCc1ccc(C(F)(F)F)cc1)C(=O)O" , the value recorded as its EC50 is 1500 nM
